# System: CD2F1 mice, L1210 leukemia ip, survival T/C
# Test protocol: NCI In Vivo Anticancer Drug Screen. Data for tumor model L1210 Leukemia (intraperitoneal) in CD2F1 (CDF1) mice
# Condition label: endpoint: mean survival time; dose: 400.0 mg/kg/injection; schedule: Q01DX009 (ip); vehicle: saline with Tween-80; higher = longer survival
Toxic doses and inconclusive results are not listed.
Property: T/C

{"columns": ["Compound", "Tested on", "T/C"],
 "data": [
  ["CC(=O)NCc1cc(CNC(C)=O)c(C)cc1C", "CD2F1 mice, L1210 leukemia ip, survival T/C", "95 % of control"],
  ["O=C(SSC(=O)c1ccccc1)c1ccccc1", "CD2F1 mice, L1210 leukemia ip, survival T/C", "91 % of control"],
  ["Cc1cc2ncn(C(=O)Nc3ccccc3)c2cc1C", "CD2F1 mice, L1210 leukemia ip, survival T/C", "96 % of control"]
]}

Kindly give each listed record's T/C.
1. OC1C2CCC(C2)C1C(O)(C(F)(F)Cl)C(F)(F)Cl (configuration not stated)
2. O=C1OC(CBr)CC1(c1ccccc1)c1ccccc1 (configuration not stated)
3. O/N=C1/CCCc2ccccc21
4. O=C1CCC(OC(=O)c2ccccc2)CCN1 (configuration not stated)

Result:
["87 % of control", "102 % of control", "104 % of control", "90 % of control"]
